methodNotes: Human hepatocyte clearance study
Assay type: in vitro ADME
studyConditions: human, hepatocytes
observedProperty: hepatocyte CLint at 1 µM (µL/min/1e6 cells)
The response must be a number in µL/min/1e6 cells with no trailing unit.

Query: Tell me measured hepatocyte CLint at 1 µM for N#Cc1nn(-c2cc(Cl)c(Oc3cc(C4CC4)c(=O)[nH]n3)c(C(F)(F)F)c2)c(=O)[nH]c1=O please.
Response: 1.78

Query: Tell me measured hepatocyte CLint at 1 µM for CC(C)c1cc(Oc2c(Cl)cc(-n3nc(C#N)c(=O)[nH]c3=O)cc2Cl)n[nH]c1=O [MGL-3196, reference compound] please.
Response: 8.39

Query: Tell me measured hepatocyte CLint at 1 µM for Cc1nn(-c2cc(Cl)c(Oc3cc(Cc4ccc(C#N)cc4)c(=O)[nH]n3)c(Cl)c2)c(=O)[nH]c1=O please.
Response: 1.57

Query: Tell me measured hepatocyte CLint at 1 µM for Cc1nn(-c2cc(Cl)c(Oc3cc(C4CCC4)c(=O)[nH]n3)c(Cl)c2)c(=O)[nH]c1=O please.
Response: 3.73

---

methodNotes: Human hepatocyte clearance study
Assay type: in vitro ADME
studyConditions: human, hepatocytes
Kindly supply the reported CLint scaled at 1 µM values for the records listed here.

Query: Tell me measured CLint scaled at 1 µM for Cc1nn(-c2cc(Cl)c(Oc3cc(Cc4ccc(C#N)cc4)c(=O)[nH]n3)c(Cl)c2)c(=O)[nH]c1=O [Compound 66] please.
Response: 4 mL/min/kg

Query: Tell me measured CLint scaled at 1 µM for CC(C)c1cc(Oc2c(Cl)cc(-n3nc(C#N)c(=O)[nH]c3=O)cc2Cl)n[nH]c1=O [MGL-3196, reference compound] please.
Response: 21.3 mL/min/kg

Query: Tell me measured CLint scaled at 1 µM for Cc1nn(-c2cc(Cl)c(Oc3cc(C4CCC4)c(=O)[nH]n3)c(Cl)c2)c(=O)[nH]c1=O [Compound 9] please.
Response: 9.5 mL/min/kg

Query: Tell me measured CLint scaled at 1 µM for N#Cc1nn(-c2cc(Cl)c(Oc3cc(C4CC4)c(=O)[nH]n3)c(C(F)(F)F)c2)c(=O)[nH]c1=O [Compound 65] please.
Response: 4.53 mL/min/kg

---

methodNotes: Human hepatocyte clearance study
Format: in vitro ADME
studyConditions: human, hepatocytes, 2 h, 1 µM
observedProperty: Human Hepatocyte Remaining Percentage @ 120 min (%)
The response must be a number in % with no trailing unit.

Query: Tell me measured Human Hepatocyte Remaining Percentage @ 120 min for Cc1nn(-c2cc(Cl)c(Oc3cc(C4CCC4)c(=O)[nH]n3)c(Cl)c2)c(=O)[nH]c1=O please.
Response: 79

Query: Tell me measured Human Hepatocyte Remaining Percentage @ 120 min for Cc1nn(-c2cc(Cl)c(Oc3cc(Cc4ccc(C#N)cc4)c(=O)[nH]n3)c(Cl)c2)c(=O)[nH]c1=O please.
Response: 93

Query: Tell me measured Human Hepatocyte Remaining Percentage @ 120 min for CC(C)c1cc(Oc2c(Cl)cc(-n3nc(C#N)c(=O)[nH]c3=O)cc2Cl)n[nH]c1=O [MGL-3196, reference compound] please.
Response: 60

Query: Tell me measured Human Hepatocyte Remaining Percentage @ 120 min for N#Cc1nn(-c2cc(Br)c(Oc3cc(C4CC4)c(=O)[nH]n3)c(Br)c2)c(=O)[nH]c1=O please.
Response: 98

Query: Tell me measured Human Hepatocyte Remaining Percentage @ 120 min for N#Cc1nn(-c2cc(Cl)c(Oc3cc(C4CC4)c(=O)[nH]n3)c(C(F)(F)F)c2)c(=O)[nH]c1=O please.
Response: 94
